src = patent EP0672658B1

Items are presented alongside their recorded Kd.
Target: Trypsin (Bos taurus)
Sequence (P00760 24-246): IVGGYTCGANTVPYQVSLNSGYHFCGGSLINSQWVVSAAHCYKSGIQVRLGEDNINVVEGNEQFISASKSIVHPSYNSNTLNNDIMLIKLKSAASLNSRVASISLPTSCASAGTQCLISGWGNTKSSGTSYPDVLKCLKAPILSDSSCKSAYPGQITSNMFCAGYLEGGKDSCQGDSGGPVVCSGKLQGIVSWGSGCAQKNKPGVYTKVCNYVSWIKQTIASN
Assay: biochemical
Design: species or system Bovine
Conditions: read-out: Kass Trypsin (converted)
Counter-ions that a name gives are not always drawn.
Return type: number; implicit unit µM.

Give the measured Kd of N=C(N)c1cccc(CCNC(=O)[C@@H]2CCCN2C(=O)[C@@H]2NCC[C@@H]3CCCC[C@@H]32)c1 [Example 29, 1-Piq-Pro-m-NHCH2CH2-C6H4C(=NH)NH2·2HCl] .
50

Would you kindly share the measured Kd for N=C(N)c1cccc(CNC(=O)[C@@H]2CCCN2C(=O)[C@@H]2NCC[C@@H]3CCCC[C@@H]32)c1 [Example 25, D-1-Piq-Pro-m-NHCH2-C6H4C(=NH)NH2·HCl] ?
100

Item under review: N=C(N)Nc1cccc(CNC(=O)[C@@H]2CCCN2C(=O)[C@@H]2NCC[C@@H]3CCCC[C@@H]32)c1 [Example 40, D-1-Piq-Pro-m-NHCH2C6H4NHC(NH)NH2·2HCl] . Reported Kd?
100

* * *

In this section, each of the compounds is paired with its reported log10(Kd).
Target: t-PA (Homo sapiens)
Sequence (P00750 36-562): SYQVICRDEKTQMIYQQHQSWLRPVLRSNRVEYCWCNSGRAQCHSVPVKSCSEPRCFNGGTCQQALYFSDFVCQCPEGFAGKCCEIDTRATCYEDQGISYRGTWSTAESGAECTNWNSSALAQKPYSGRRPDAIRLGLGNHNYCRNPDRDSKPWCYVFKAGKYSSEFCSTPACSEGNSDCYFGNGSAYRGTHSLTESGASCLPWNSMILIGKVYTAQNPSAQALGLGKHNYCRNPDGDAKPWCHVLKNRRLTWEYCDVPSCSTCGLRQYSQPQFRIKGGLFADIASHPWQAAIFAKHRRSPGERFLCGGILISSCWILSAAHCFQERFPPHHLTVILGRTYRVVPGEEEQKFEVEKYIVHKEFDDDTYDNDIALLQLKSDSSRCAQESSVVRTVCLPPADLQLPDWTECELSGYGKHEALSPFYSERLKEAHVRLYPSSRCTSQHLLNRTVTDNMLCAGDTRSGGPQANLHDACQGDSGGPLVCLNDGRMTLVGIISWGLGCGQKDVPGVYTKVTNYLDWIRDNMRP
Assay: biochemical
Conditions: read-out: Kass t-PA (converted)
Structures can show the parent of a compound that is named as a salt.
Recorded Kd (log10, µM)

The cases that follow already have their log10(Kd) on record.
compound="N=C(N)c1ccc(CNC(=O)[C@@H]2C[C@@H]3CCCC[C@@H]3N2C(=O)[C@@H]2NCC[C@@H]3CCCC[C@@H]32)cc1 [Example 42, D-1-Piq-cis-Ohi-p-NHCH2C6H4C(NH)NH2·2HCl]" result_type=log10(Kd) numeric_value=2.00
compound="N=C(N)c1ccc(CNC(=O)[C@@H]2CCCN2C(=O)[C@H]2C[C@H]3CCCC[C@H]3CN2)cc1 [Example 19, D-3-Piq-Pro-p-NHCH2C6H4C(NH)NH2·3HCl]" result_type=log10(Kd) numeric_value=2.25
compound="N=C(N)c1ccc(CNC(=O)[C@@H]2CCCN2C(=O)[C@H](N)CC2CCCCC2)cc1 [Example 51, D-Cha-Pro-p-NHCH2C6H4C(NH)NH2·2HCl]" result_type=log10(Kd) numeric_value=2.00
compound=N=C(N)c1ccc(CNC(=O)[C@@H]2CCCN2C(=O)[C@@H](CC2CCCCC2)NCCC(=O)O)cc1 result_type=log10(Kd) numeric_value=2.00
compound=N=C(N)c1ccc(CNC(=O)[C@@H]2C[C@@H]3CCCC[C@@H]3N2C(=O)[C@@H](Cc2ccccc2)NCC(=O)O)cc1 result_type=log10(Kd) numeric_value=2.00
compound=N=C(N)c1ccc(CNC(=O)[C@@H]2C[C@@H]3CCCC[C@@H]3N2C(=O)[C@@H](CC2CCCCC2)NCC(=O)O)cc1 result_type=log10(Kd) numeric_value=1.40
compound="N=C(N)c1ccc(CNC(=O)[C@@H]2CCCN2C(=O)[C@H]2CCCCN2)cc1 [Example 17, D-hPro-Pro-p-NHCH2C6H4C(NH)NH2·HCl]" result_type=log10(Kd) numeric_value=2.47
compound=CCS(=O)(=O)N[C@H](Cc1ccccc1)C(=O)N1CCC[C@H]1C(=O)NCCc1ccc(C(=N)N)cc1 result_type=log10(Kd) numeric_value=2.00

Form field: reported log10(Kd) of "CCS(=O)(=O)N[C@H](Cc1ccccc1)C(=O)N1CCC[C@H]1C(=O)NCc1ccc(NC(=N)N)cc1"
2.00

Please look up its log10(Kd): "N=C(N)c1ccc(CNC(=O)[C@@H]2CCCN2C(=O)[C@@H](Cc2ccccc2)NCC(=O)O)cc1"
2.00

I would be grateful if you could share the reported log10(Kd) for N=C(N)c1ccc(CNC(=O)[C@@H]2CCCN2C(=O)[C@@H]2NCC[C@@H]3CCCC[C@@H]32)cc1 [Example 18, 1-Piq-Pro-p-NHCH2C6H4C(NH)NH2·2HCl] .
2.03

Any idea what its log10(Kd) is? The compound is "N=C(N)c1ccc(CCCNC(=O)[C@@H]2CCCN2C(=O)[C@@H]2NCC[C@@H]3CCCC[C@@H]32)cc1"
2.00

Give its log10(Kd) value. Item: CCS(=O)(=O)N[C@H](Cc1ccccc1)C(=O)N1CCC[C@H]1C(=O)NCCCCNC(=N)N [Example 1, EtS02-D-Phe-Pro-Agm·HCl]
1.09

Please give the measured log10(Kd) for this compound: "N=C(N)c1ccc(CNC(=O)CN(CCc2ccccc2)C(=O)[C@H]2CCCCN2)cc1"
2.70

* * *

Experiment: in vivo
Design: species or system rats
Conditions: plasma; rat; oral vs i.v.
From the text: Each sample population represented alternating sequential time points.
Where a name gives a salt, the structure may show the parent alone.
RESULT TYPE: bioavailability (%)
Dear colleague, please return just the value in %, with no unit written.

What does the record list as bioavailability for CCS(=O)(=O)N[C@H](Cc1ccccc1)C(=O)N1CCC[C@H]1C(=O)NCCCCNC(=N)N [Example 1, EtS02-D-Phe-Pro-Agm·HCl] ?
8

// returns reported bioavailability for input N=C(N)c1ccc(CNC(=O)[C@@H]2C[C@@H]3CCCC[C@@H]3N2C(=O)[C@H]2CCCCN2)cc1 [Example 20, D-hPro-Ohi-p-NHCH2C6H4C(NH)NH2·3HCl]
23

* * *

Measured Kd accompanies every entry in the list below.
Molecular target: factor Xa (Homo sapiens, UniProt P00742)
Sequence (P00742 235-488 limits assumed): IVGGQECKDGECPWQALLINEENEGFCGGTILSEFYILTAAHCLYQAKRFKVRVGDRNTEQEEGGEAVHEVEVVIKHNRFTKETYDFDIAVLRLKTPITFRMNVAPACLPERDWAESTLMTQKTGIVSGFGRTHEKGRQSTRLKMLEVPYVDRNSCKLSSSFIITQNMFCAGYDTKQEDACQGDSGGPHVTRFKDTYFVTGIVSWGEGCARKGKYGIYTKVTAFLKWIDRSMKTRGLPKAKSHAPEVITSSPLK
Sequence (P00742 41-179 partner limits assumed): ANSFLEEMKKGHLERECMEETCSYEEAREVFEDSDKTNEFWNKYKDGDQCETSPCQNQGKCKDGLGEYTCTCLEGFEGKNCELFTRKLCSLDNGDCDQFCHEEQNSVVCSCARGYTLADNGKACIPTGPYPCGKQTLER
Assay: biochemical
Settings: read-out: Kass Xa (converted)
Text: […]
Counter-ions that a name gives are not always drawn.

Check out these entries, answers already filled in.
molecule=N=C(N)c1ccc(CNC(=O)[C@@H]2CCCN2C(=O)[C@@H](CCc2ccccc2)NCC(=O)O)cc1 result="0.4 µM"
molecule=N=C(N)c1ccc(CNC(=O)[C@@H]2C[C@H](Oc3ccccc3)CN2C(=O)[C@H]2CCCCN2)cc1 result="23.3 µM"
molecule="N=C(N)NCCCCCCNC(=O)[C@@H]1CCCN1C(=O)[C@H](N)Cc1ccccc1 [Example 5, D-Phe-Pro-NH(CH2)6NHC(NH)NH2·HCl]" result="2560 µM"
molecule="N=C(N)c1ccc(CNC(=O)[C@@H]2CCCN2C(=O)[C@H]2CCCCN2)cc1 [Example 17, D-hPro-Pro-p-NHCH2C6H4C(NH)NH2·HCl]" result="20.4 µM"
molecule="N=C(N)Nc1ccc(CNC(=O)[C@@H]2CCCN2C(=O)[C@@H]2NCC[C@@H]3CCCC[C@@H]32)cc1 [Example 38, D-1-Piq-Pro-p-NHCH2C6H4NHC(NH)NH2·2HCl]" result="> 1000 µM"

Kd of "N=C(N)c1ccc(CNC(=O)CN(CCc2ccccc2)C(=O)[C@H]2CCCCN2)cc1" on factor Xa (Homo sapiens, UniProt P00742)?
1.61 µM

What Kd appears in the records for this molecule with factor Xa (Homo sapiens, UniProt P00742)? N=C(N)NCCCCNC(=O)[C@@H]1CCCN1C(=O)[C@@H]1NCC[C@H]2CCCC[C@H]21 [Example 61, trihydrochloride]
33.3 µM

So what Kd did NCc1ccc(CNC(=O)[C@@H]2CCCN2C(=O)[C@H](N)Cc2ccccc2)cc1 [Example 10, D-Phe-Pro-p-NHCH2C6H4CH2NH2·HCl] get with factor Xa (Homo sapiens, UniProt P00742)?
41700 µM

* * *

Listed next: entries and their corresponding Kd.
Molecular target: Human Thrombin (Homo sapiens)
Test: biochemical
Settings: read-out: Kass Human Thrombin (converted)
Structures can show the parent of a compound that is named as a salt.
The figure you give is taken to be in nM; do not add the unit.

molecule="N=C(N)c1cccc(CNC(=O)[C@@H]2CCCN2C(=O)[C@H](N)Cc2ccccc2)c1 [Example 16, D-Phe-Pro-m-NHCH2C6H4C(NH)NH2·0.75HCl]" result_type=Kd numeric_value=1030
molecule="N=C(N)NCCCCCNC(=O)[C@@H]1CCCN1C(=O)[C@H](N)Cc1ccccc1 [Example 6, D-Phe-Pro-NH(CH2)5NHC(NH)NH2·HCl]" result_type=Kd numeric_value=435
molecule="N=C(N)c1ccc(CCCNC(=O)[C@@H]2CCCN2C(=O)[C@@H]2NCC[C@@H]3CCCC[C@@H]32)cc1 [Example 32]" result_type=Kd numeric_value=7690
molecule="CCS(=O)(=O)N[C@H](Cc1ccccc1)C(=O)N1CCC[C@H]1C(=O)NCCCCNC(=N)N [Example 1, EtS02-D-Phe-Pro-Agm·HCl]" result_type=Kd numeric_value=303

Look up Kd for this molecule: CCS(=O)(=O)N[C@H](CC1CCCCC1)C(=O)N1CCC[C@H]1C(=O)NCCCCNC(=N)N [Example 2, EtSO2-D-Cha-Pro-Agm·HCl]
227
